Every entry's value here was drawn from ChEMBL document CHEMBL1127980.

- system.tested: Alpha-2C adrenergic receptor (Homo sapiens)
- Sequence (P18825 whole entry): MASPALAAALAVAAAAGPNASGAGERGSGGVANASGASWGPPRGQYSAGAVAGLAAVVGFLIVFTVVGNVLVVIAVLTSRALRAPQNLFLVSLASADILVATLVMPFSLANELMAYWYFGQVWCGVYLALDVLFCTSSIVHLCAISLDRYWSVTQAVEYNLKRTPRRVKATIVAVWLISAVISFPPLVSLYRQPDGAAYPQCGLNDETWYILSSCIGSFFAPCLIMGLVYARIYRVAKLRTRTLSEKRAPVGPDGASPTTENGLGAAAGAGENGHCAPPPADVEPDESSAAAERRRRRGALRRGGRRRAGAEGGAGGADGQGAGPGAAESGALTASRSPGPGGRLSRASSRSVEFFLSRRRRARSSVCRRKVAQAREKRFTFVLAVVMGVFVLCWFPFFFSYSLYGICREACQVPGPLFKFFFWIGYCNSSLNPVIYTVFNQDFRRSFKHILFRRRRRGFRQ
assay.readout: Ki (nM)

| compound | Ki (nM) |
| --- | --- |
| C1COC(N2CCOCC2)=N1 | 16600 |

(a) c1ccc2c(c1)CCCC2NC1=NCCCO1 (stereo not given)
(b) C1CCCC(NC2=NCCO2)CC1
IN: Looking at a and b , which one comes out lower in Ki terms? Use the label to indicate which entry you chose.
OUT: b
(b: 33.1 nM, a: 85.1 nM)

---

- system.tested: Alpha-2B adrenergic receptor (Homo sapiens)
- Sequence (P18089 whole entry): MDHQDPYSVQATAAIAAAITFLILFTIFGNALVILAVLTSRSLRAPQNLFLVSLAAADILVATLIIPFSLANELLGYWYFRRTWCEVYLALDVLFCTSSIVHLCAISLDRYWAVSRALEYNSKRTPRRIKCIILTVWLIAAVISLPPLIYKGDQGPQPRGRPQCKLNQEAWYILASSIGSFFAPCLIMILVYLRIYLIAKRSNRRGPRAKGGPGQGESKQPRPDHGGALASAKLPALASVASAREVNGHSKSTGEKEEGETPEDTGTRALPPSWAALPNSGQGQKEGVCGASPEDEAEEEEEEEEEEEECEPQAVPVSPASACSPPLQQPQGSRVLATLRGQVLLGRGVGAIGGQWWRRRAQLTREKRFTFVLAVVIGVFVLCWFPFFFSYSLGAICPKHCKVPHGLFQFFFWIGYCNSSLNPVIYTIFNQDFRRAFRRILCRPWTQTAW
- method.summary: Binding affinity towards human Alpha-2B adrenergic receptor by the displacement of [3H]rauwolscine
assay.readout: Ki (nM)

| molecule | system.tested | Ki (nM) |
| --- | --- | --- |
| c1ccc2c(c1)CCCC2NC1=NCCO1 (stereo not drawn) | Alpha-2B adrenergic receptor (Homo sapiens) | 2.14 |

(A) C1COC(NC(C2CC2)C2CC2)=N1 [RILMENIDINE]
(B) C1COC(N2CCOCC2)=N1
IN: Looking at A and B , which one comes out lower in Ki terms? Use the label to indicate which entry you chose.
OUT: A
(A: 70.8 nM, B: 11700 nM)
